Origin of values: patent US20120121596A1

# target.or.test.system: T1, BSA (bovine, UniProt P02769)
# T1 construct: also called bovine serum albumin
# T1 sequence (P02769 25-607 limits assumed): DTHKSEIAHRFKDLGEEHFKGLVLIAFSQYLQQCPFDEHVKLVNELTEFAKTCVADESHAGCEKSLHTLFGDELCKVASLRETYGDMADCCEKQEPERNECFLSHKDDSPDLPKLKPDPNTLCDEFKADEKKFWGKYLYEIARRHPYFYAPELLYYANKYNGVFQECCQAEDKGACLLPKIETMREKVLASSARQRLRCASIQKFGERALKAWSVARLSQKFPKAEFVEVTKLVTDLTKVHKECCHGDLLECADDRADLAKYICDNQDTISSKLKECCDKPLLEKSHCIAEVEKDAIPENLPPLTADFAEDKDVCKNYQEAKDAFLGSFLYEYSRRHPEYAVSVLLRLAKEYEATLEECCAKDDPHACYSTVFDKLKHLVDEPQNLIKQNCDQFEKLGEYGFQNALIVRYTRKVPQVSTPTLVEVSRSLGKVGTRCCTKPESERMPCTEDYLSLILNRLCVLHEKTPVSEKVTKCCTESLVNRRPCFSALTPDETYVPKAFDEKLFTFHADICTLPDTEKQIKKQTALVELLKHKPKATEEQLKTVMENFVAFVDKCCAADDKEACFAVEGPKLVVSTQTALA
# experiment: direct phage ELISA, proteins coated at 2 µg/ml, phage-Fab supernatant, OD450;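 note: specificity test of dual-activity clones, with binding assessed across an antigen panel to check whether each recognises only its cognate target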

| binder | binding result |
| --- | --- |
| D1.5-121 (phage-displayed Fab clone) (Fab, V domains shown, EGFR/HER3 clone) VH: EVQLVESGGGLVQPGGSLRLSCAASGFTFTGNWIHWVRQAPGKGLEWVGEISPSGGYTDYADSVKGRFTISADTSKNTAYLQMNSLRAEDTAVYYCARESRVSYEAAMDYWGQGTLVTVSS VL: DIQMTQSPSSLSASVGDRVTITCRASQDVGSDLAWYQQKPGKAPKLLIYSASYLYSGVPSRFSGSGSGTDFTLTISSLQPEDFATYYCQQSDPEPYTFGQGTKVEIKR | no binding |
| D1.5-201 (phage-displayed Fab clone) (Fab, V domains shown, EGFR/HER2 dual-specific clone from the D1.5 light chain library) VH: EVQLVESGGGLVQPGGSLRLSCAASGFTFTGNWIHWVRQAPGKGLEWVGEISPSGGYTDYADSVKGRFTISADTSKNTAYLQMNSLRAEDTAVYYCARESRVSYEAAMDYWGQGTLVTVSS VL: DIQMTQSPSSLSASVGDRVTITCRASQAVWGGYIAPVAWYQQKPGKAPKLLIYDGSYLYSGVPSRFSGSGSGTDFTLTISSLQPEDFATYYCQQRLPTPYTFGQGTKVEIKR | no binding |
| D1.5 (phage-displayed Fab clone) (Fab, V domains shown) VH: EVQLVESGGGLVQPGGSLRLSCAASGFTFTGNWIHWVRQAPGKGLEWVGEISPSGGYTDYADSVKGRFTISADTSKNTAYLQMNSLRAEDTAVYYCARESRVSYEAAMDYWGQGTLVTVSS VL: DIQMTQSPSSLSASVGDRVTITCRASQDVSTAVAWYQQKPGKAPKLLIYSASFLYSGVPSRFSGSGSGTDFTLTISSLQPEDFATYYCQQSYPTPYTFGQGTKVEIKR | no binding |
